Origin of values: ChEMBL document CHEMBL4706532

What fold change (FC) was measured for each of the following?
- Species on record: Homo sapiens
- assay.procedure: Stimulation of human membrane P-gp ATPase activity at 0.5 mM using MgATP as substrate preincubated with enzyme for 5 mins followed by substrate addition and measured after 120 mins by ADP-Glo luminescence assay relative to control
- Assay type: cell membranes
- cond: time 125.0 min
Number, no unit, nothing else.

Challenge: Which fold change (FC) is reported for this compound? CCOc1ccc2c(=O)cc(CC)oc2c1COC(=O)Cc1cc(OC)c(OC)c(OC)c1
Response given: 1.2

Challenge: Which fold change (FC) is reported for this compound? CCOc1ccc2c(=O)cc(CC)oc2c1COC(=O)/C=C/c1ccccc1
Response given: 1.2

Challenge: Which fold change (FC) is reported for this compound? COc1ccc(CCN(C)CCCC(C#N)(c2ccc(OC)c(OC)c2)C(C)C)cc1OC (stereo not given)
Response given: 1.8

Challenge: Which fold change (FC) is reported for this compound? CCOc1ccc2c(=O)cc(CC)oc2c1COC(=O)/C=C/c1ccc(OC)cc1
Response given: 1.2

Challenge: Which fold change (FC) is reported for this compound? CCc1cc(=O)c2ccc(OC(C)C)c(COC(=O)Cc3cc(OC)c(OC)c(OC)c3)c2o1
Response given: 1.2

====

- assay.procedure: Cytotoxicity against human T29 cells assessed as reduction in cell viability at 10 uM incubated for 48 hrs by MTT assay
- Format: cell-based
- cond: t29, 48 h
measured.metric: Activity

CCc1cc(=O)c2ccc(OC)c(COC(=O)c3ccccc3[N+](=O)[O-])c2o1	Non-Toxic
CCc1cc(=O)c2ccc(OC)c(COC(=O)c3ccc(OC)c(OC)c3)c2o1	Non-Toxic
CCc1cc(=O)c2ccc(OC)c(COC(=O)c3ccc(C#N)cc3)c2o1	Toxic
CCc1cc(=O)c2ccc(OC)c(COC(=O)c3cc(OC)c(OC)cc3OC)c2o1	Non-Toxic
CCc1cc(=O)c2ccc(OC)c(COC(=O)c3ccc(N)c(C)c3)c2o1	Non-Toxic
CCOc1ccc2c(=O)cc(CC)oc2c1COC(=O)c1cc(OC)c(OC)cc1OC	Non-Toxic
CCc1cc(=O)c2ccc(OC)c(COC(=O)c3ccc(Cl)c([N+](=O)[O-])c3)c2o1	Toxic
CCCCCc1ccc(C(=O)OCc2c(OC)ccc3c(=O)cc(CC)oc23)cc1	Non-Toxic

Challenge: Which Activity is reported for this compound? CCc1cc(=O)c2ccc(OC)c(COC(=O)c3ccc(C(C)(C)C)cc3)c2o1
Response given: Non-Toxic

Challenge: Which Activity is reported for this compound? CCc1cc(=O)c2ccc(OC)c(COC(=O)Cc3ccccc3C)c2o1
Response given: Non-Toxic

Challenge: Which Activity is reported for this compound? CCc1cc(=O)c2ccc(OC)c(COC(=O)Cc3ccc(Cl)cc3)c2o1
Response given: Non-Toxic

Challenge: Which Activity is reported for this compound? CCc1cc(=O)c2ccc(OC)c(COC(=O)/C=C/c3ccc(Cl)cc3)c2o1
Response given: Non-Toxic

Challenge: Which Activity is reported for this compound? CCCc1ccc(C(=O)OCc2c(OC)ccc3c(=O)cc(CC)oc23)cc1
Response given: Non-Toxic

====

- Tested on: A2780/Taxol
- assay.procedure: Cytotoxicity against human A2780T cells assessed as reduction in cell viability at 10 uM incubated for 48 hrs by MTT assay
- Type: cell-based
measured.metric: Activity

CCc1cc(=O)c2ccc(OC(C)C)c(COC(=O)/C=C/c3ccccc3)c2o1	Non-Toxic
CCc1cc(=O)c2ccc(OC(C)C)c(COC(=O)c3cc(OC)c(OC)c(OC)c3)c2o1	Non-Toxic
CCOc1ccc2c(=O)cc(CC)oc2c1COC(=O)Cc1cc(OC)c(OC)c(OC)c1	Non-Toxic

====

- assay.procedure: Reversal of multidrug resistance activity in P-gp overexpressing human KB-VIN cells assessed as potentiation of VCR-induced cytotoxicity by measuring reversal ratio at 10 uM incubated for 48 hrs in presence of VCR by MTT assay
- Assay type: functional
measured.metric: Ratio
Number, no unit, nothing else.

Challenge: Which Ratio is reported for this molecule? CCOc1ccc2c(=O)cc(CC)oc2c1COC(=O)/C=C/c1ccccc1
Response given: 633

Challenge: Which Ratio is reported for this molecule? CCc1cc(=O)c2ccc(OC)c(COC(=O)c3cc(OC)c(OC)c(OC)c3)c2o1
Response given: 424

Challenge: Which Ratio is reported for this molecule? CCc1cc(=O)c2ccc(OC(C)C)c(COC(=O)Cc3cc(OC)c(OC)c(OC)c3)c2o1
Response given: 604

Challenge: Which Ratio is reported for this molecule? CCOc1ccc2c(=O)cc(CC)oc2c1COC(=O)Cc1cc(OC)c(OC)c(OC)c1
Response given: 628

Challenge: Which Ratio is reported for this molecule? CCc1cc(=O)c2ccc(OC)c(COC(=O)c3cccc(N(C)C)c3)c2o1
Response given: 234

Challenge: Which Ratio is reported for this molecule? CCc1cc(=O)c2ccc(OC)c(COC(=O)/C=C/c3ccc(OC)cc3)c2o1
Response given: 420

Challenge: Which Ratio is reported for this molecule? CCOc1ccc2c(=O)cc(CC)oc2c1COC(=O)c1cc(OC)c(OC)c(OC)c1
Response given: 248

Challenge: Which Ratio is reported for this molecule? CCc1cc(=O)c2ccc(OC)c(COC(=O)c3ccc(OC)c(OC)c3)c2o1
Response given: 105

Challenge: Which Ratio is reported for this molecule? CCOc1ccc2c(=O)cc(CC)oc2c1COC(=O)/C=C/c1ccc(OC)cc1
Response given: 299

Challenge: Which Ratio is reported for this molecule? CCc1cc(=O)c2ccc(OC(C)C)c(COC(=O)/C=C/c3ccccc3)c2o1
Response given: 466

Challenge: Which Ratio is reported for this molecule? CCc1cc(=O)c2ccc(OC)c(COC(=O)/C=C/c3ccccc3)c2o1
Response given: 343

Challenge: Which Ratio is reported for this molecule? CCc1cc(=O)c2ccc(OC)c(COC(=O)c3cc(OC)c(OC)cc3OC)c2o1
Response given: 579

Challenge: Which Ratio is reported for this molecule? CCc1cc(=O)c2ccc(OC(C)C)c(COC(=O)/C=C/c3ccc(OC)cc3)c2o1
Response given: 342
